# Test target: GPR40 (Homo sapiens)
# Construct: expressed in transfected cells; host or cells: HEK293 cells stably expressing GPR40 (Hygromycin selection)
# Sequence (O14842 whole entry): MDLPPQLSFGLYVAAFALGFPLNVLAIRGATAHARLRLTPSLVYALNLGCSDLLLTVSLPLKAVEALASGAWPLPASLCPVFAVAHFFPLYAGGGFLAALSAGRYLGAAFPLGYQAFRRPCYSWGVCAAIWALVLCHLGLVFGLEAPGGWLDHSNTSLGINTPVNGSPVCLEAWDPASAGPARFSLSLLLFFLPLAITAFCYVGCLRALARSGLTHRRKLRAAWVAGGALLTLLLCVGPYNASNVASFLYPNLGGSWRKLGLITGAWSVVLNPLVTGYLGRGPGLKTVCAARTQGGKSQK
# Test protocol: IP1 accumulation assay in HEK293 cells stably expressing GPR40
# Assay type: cell-based
# Condition description: Tables A-1a to A-7b (structure-property relationship); obtained by methods of Biological Example 1
Property label: EC50 (nM)

COc1ccc(C(=O)N(CC(C)(C)CCn2cc(CCCCCCCCCCCCCCCC(=O)NCCN(CCC(=O)NCCN)CCC(=O)NCCN)nn2)c2cccc(C)n2)c(N2CCC(COc3cc([C@@H](CC(=O)O)C4CC4)ccn3)CC2)c1; 0.17
COc1ccc(C(=O)N(CC(C)(C)CCn2cc(CCCCCCCCCCCCCCC(=O)NCCC[N+](C)(CC(=O)[O-])CC(=O)O)nn2)c2cccc(C)n2)c(N2CCC(COc3cc([C@@H](CC(=O)O)C4CC4)ccn3)CC2)c1 (stereo partly shown); 0.38

(I) C[C@H](C(=O)O)[C@H](c1ccc2c(c1)O[C@@H](C1CCN(Cc3cc(-n4cc(CCCCCCCCCCCCCCCCCC(=O)NCCN(CCC(=O)NCCN)CCC(=O)NCCN)nn4)ccc3OC(F)(F)F)CC1)CC2)C1CC1
(II) C[C@H](C(=O)O)[C@H](c1ccc2c(c1)O[C@@H](C1CCN(Cc3cc(-n4cc(CCCCCCCCCCCCCCCC(=O)NCC[N+](C)(CCC(=O)NCCN)CCC(=O)NCCN)nn4)ccc3OC(F)(F)F)CC1)CC2)C1CC1
[Q] Look at I and II . Which one has the lower recorded EC50 number? Answer by quoting the chosen item's label.
[A] II
